Data origin, for the record: patent US20200031912A1

target: human recombinant FcRn protein (human, UniProt P55899 24-297); test: Biacore
Sequence (P55899 24-297): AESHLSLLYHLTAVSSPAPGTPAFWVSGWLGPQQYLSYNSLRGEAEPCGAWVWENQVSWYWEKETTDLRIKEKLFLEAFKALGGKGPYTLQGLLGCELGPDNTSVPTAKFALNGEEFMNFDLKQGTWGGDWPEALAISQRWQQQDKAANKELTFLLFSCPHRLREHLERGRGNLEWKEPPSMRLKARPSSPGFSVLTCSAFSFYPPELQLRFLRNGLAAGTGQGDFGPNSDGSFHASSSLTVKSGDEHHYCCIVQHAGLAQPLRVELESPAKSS
Measured Quantity: pKd
pKd here: minus log base 10 of the concentration, concentration in moles per litre.

For orientation, consider the following solved cases.
{"Binder": "ABD04 (SEQ ID NO: 6) (designed binder) GPSVFLFPPKPKDTMMISRTPEVTCVFVDYRADYLEVKFNWYVDGAEVHHAKTKPRQYDPLYGYRVVSVLTVSHQDWLNGKEYTCKVSNKALPAPIEKTISKDK", "pKd": 8.05}
{"Binder": "B11, a template CH2 domain molecule (SEQ ID NO: 12) (designed binder) GPSVFLFPPKPKDTLMISRTPEVTCVVVDYRADYLEVKFNWYVDGVEVHNAKTKPRQYDPLYGYRVVSVLTVLHQDWLNGKEYKCKVSNKALPAPIEKTISKAK", "pKd": 7.92}
{"Binder": "ABD02 (SEQ ID NO: 4) (designed binder) GPSVFLFPPKPKDTLMISRTPEVTCVFVDYRADYLEVKFNWYVDGAEVHNAKTKPRQYDPLYGYRVVSVLTVLHQDWLNGKEYTCKVSNKALPAPIEKTISKDK", "pKd": 7.68}
{"Binder": "template (Macaque) CH2 domain molecule of SEQ ID NO: 2 (other) GPSVFLFPPKPKDTLMISRTPEVTCVVVDVSQEDPDVKFNWYVNGAEVHHAQTKPRETQYNSTYRVVSVLTVTHQDWLNGKEYTCKVSNKALPAPIQKTISKDK", "pKd": 7.89}
{"Binder": "ABD05 (SEQ ID NO: 7) (designed binder) GPSVFLFPPKPKDTLMISRTPEVTCVFVDYRADYLEVKFNWYVDGAEVHHAKTKPRQYDPLYGYRVVSVLTVSHQDWLNGKEYTCKVSNKALPAPIEKTISKDK", "pKd": 8.04}

The reported value for ABD03 (SEQ ID NO: 5) (designed binder) GPSVFLFPPKPKDTLMISRTPEVTCVFVDYRADYLEVKFNWYVDGAEVHHAKTKPRQYDPLYGYRVVSVLTVSHQDWLNGKEYTCKVSNKALPAPIQKTISKDK in terms of pKd is 7.94

pKd for ABD01 (SEQ ID NO: 3) (designed binder) GPSVFLFPPKPKDTLMISRTPEVTCVFVDYRADYLEVKFNWYVDGVEVHNAKTKPRQYDPLYGYRVVSVLTVLHQDWLNGKEYTCKVSNKALPAPIEKTISKDK is 8.38
